Assay: Clearance in iv dosed rat
Format: ADME, organism-based
Conditions: in vivo
readout.kind: clearance
The answer should read as a number with its unit following.

## Task Any idea what clearance was measured for N#Cc1c(O)nc(SCc2cccc(F)c2F)nc1C1CC1 ?
## Result 1.6 mL/min/kg

###

Test: Half life in iv dosed rat
Format: ADME, organism-based
Settings: in vivo
readout.kind: half-life
Reply with a number, then the unit it belongs to.

## Task Need half-life, item N#Cc1c(O)nc(SCc2cccc(F)c2F)nc1C1CC1
## Result 360 min

###

Assignment: determine reported IC50 for the given compounds.
Target: C-X-C chemokine receptor type 2 (Homo sapiens)
Sequence (P25025 whole entry): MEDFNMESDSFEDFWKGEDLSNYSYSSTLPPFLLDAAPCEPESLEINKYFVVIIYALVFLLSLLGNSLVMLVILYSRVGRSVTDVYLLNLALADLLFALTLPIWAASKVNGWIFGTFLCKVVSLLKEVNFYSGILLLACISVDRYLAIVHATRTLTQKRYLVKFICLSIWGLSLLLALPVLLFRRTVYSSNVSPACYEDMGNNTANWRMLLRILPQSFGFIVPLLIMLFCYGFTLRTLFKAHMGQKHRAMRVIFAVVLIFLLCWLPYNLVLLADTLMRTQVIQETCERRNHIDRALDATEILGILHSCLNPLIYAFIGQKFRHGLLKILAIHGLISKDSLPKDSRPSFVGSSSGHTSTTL
Experiment: Displacement of [125I]-GRO-alpha from human recombinant CXCR2 receptor expressed in CHO cell membranes
Could you give me the number in µM? Just the number is fine.

## Task I have this compound here, N#Cc1c(O)nc(SCc2c(Cl)cccc2Cl)nc1-c1ccccc1 , and I need its recorded IC50.
## Result 4.3

## Task Bench note: what IC50 did N#Cc1c(O)nc(SCc2cccc(F)c2F)nc1C1CC1 show?
## Result 0.04
